# Test system: Escherichia coli
# experimental_details: Antibacterial activity against Escherichia coli AS226 carrying pBSDD240A mutant after 18 hrs by broth microdilution method
# Type: functional
# experimental_context: AS226, 18 h
# MIC per record follows
All answers are understood in µg/mL, so give the number only.

Request: Look up MIC for this compound: C[C@H]1[C@H](NC(=O)/C(=N\OC(C)(C)C(=O)O)c2csc(N)n2)C(=O)N1S(=O)(=O)O [AZTREONAM]
Result: 128

Request: What does the record list as MIC for CO/N=C(\C(=O)N[C@@H]1C(=O)N2C(C(=O)O)=C(COC(C)=O)CS[C@H]12)c1csc(N)n1 [CEFOTAXIME] ?
Result: 512

Request: Give its MIC value. Item: CO[C@@]1(NC(=O)Cc2cccs2)C(=O)N2C(C(=O)O)=C(COC(N)=O)CS[C@@H]21 [CEFOXITIN]
Result: 1

Request: Tell me the measured MIC of O=C(Cc1cccs1)N[C@@H]1C(=O)N2C(C(=O)[O-])=C(C[n+]3ccccc3)CS[C@H]12 [CEPHALORIDINE] , please.
Result: 1020
